Recorded values, source the supplement of paper PMC9732359.

So I've got a bunch of sequences here, and I need their protein stability index values.
assay: protein stability index of a GFP-peptide fusion (yeast GPS) (PSI 1-4); higher = more stable; sorted into four equal gates, so the index is relative within each strain; conditions: pdr5∆
No unit in the answer, please; the number alone is enough.

Sample SYEVEHVIQIPLNKPLL [TAF14] ; protein stability index observed: 2.66

Sample VVIDAKDHLLGRLASTI [RPL16B] ; protein stability index observed: 1.25

Sample SKTHKTVSRAYGGSRCA [RPL34A] ; protein stability index observed: 2.91

Sample KEAAAVAEGKSKQDASP [RPL8A] ; protein stability index observed: 3.29
